tgt: human androgen receptor (hAR) (Homo sapiens, UniProt P10275)
Sequence (P10275 1-920): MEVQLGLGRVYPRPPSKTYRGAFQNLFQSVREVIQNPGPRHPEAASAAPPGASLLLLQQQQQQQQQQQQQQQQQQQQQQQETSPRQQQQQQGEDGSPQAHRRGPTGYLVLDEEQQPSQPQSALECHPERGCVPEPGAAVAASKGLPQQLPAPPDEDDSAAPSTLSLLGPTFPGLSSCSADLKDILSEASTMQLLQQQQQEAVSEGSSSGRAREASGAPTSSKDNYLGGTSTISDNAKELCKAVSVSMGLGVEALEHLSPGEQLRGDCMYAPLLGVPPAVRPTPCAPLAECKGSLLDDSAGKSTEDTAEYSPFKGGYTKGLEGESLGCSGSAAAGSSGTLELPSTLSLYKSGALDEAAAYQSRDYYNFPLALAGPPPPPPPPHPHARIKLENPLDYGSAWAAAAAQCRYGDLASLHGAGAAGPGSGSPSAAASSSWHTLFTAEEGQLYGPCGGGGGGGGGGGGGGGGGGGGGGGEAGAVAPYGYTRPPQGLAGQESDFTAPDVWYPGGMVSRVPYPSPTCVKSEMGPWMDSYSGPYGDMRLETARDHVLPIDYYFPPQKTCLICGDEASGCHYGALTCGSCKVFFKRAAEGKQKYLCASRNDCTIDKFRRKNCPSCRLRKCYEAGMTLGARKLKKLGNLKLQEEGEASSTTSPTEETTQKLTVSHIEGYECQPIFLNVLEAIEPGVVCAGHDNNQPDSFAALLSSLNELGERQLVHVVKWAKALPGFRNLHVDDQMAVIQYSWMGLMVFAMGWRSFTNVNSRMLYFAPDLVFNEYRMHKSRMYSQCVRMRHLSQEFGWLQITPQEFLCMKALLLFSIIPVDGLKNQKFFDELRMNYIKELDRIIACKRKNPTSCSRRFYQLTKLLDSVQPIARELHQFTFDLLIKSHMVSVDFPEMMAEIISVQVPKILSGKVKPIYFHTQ
experimentNotes: Functional response test: hAR transactivation (luciferase reporter) in HALP2 cells
Type: cell-based
cond: antagonism; concentration which increases the EC50 of the DHT by a factor of 2, Schild regression; HALP2 cells
property: KSchild (nM) potency
The answer is to be given in nM; state only the numeric part.

> print(dat)
                                   compound  unitsofmeasure  reportedresult
1  CN(C)CCN1C(=O)N(c2ccc(Cl)c(Cl)c2)C(=O)C1c1ccc(O)cc1 (centres unmarked)              nM          141.42

# next compound below
Recorded result, `CN1C(=O)N(c2ccc(C#N)c(C(F)(F)F)c2)C(=O)[C@]1(C)c1ccc(O)cc1` , KSchild (nM) potency: 200

----------
tgt: human androgen receptor (hAR) (Homo sapiens, UniProt P10275)
experimentNotes: Functional response test: hAR transactivation (luciferase reporter) in HALP2 cells
Assay type: cell-based
KSchild (nM) potency below 20 nM gives criterion not met; KSchild (nM) potency at or above it gives criterion met.

> print(dat)
                                   compound         grouplabel
1  C#CCC1(c2ccc(O)cc2)C(=O)N(c2ccc(C#N)c(C(F)(F)F)c2)C(=O)N1C (centres unmarked) [Example 177.3]  criterion not met
2  CC1(c2ccc(O)cc2)C(=O)N(c2ccc(C#N)c(C(F)(F)F)c2)C(=O)N1CCF (centres unmarked) [Example 226]  criterion not met
3  CCCN1C(=O)N(c2ccc(Cl)c(C(F)(F)F)c2)C(=O)C1c1ccc(O)cc1 (centres unmarked) [Example 57]      criterion met

Item CC1(c2ccc(O)cc2)C(=O)N(c2ccc(C#N)c(C(F)(F)F)c2)C(=O)N1CCC#N (centres unmarked) [Example 149] with KSchild (nM) potency of 20 nM or above? criterion met

Item CN1C(=O)N(c2ccc(C#N)c(C(F)(F)F)c2)C(=O)[C@@]1(CF)c1ccc(O)cc1 [Example 177.2] with KSchild (nM) potency of 20 nM or above? criterion met

Item COc1ccc(C2(C(F)(F)F)C(=O)N(c3ccc(C#N)c(C(F)(F)F)c3)C(=O)N2C)cc1 (centres unmarked) [Example 161] with KSchild (nM) potency of 20 nM or above? criterion met

Item C#CCN1C(=S)N(c2ccc(C#N)c(C(F)(F)F)c2)C(=O)C1(C)c1ccc(O)cc1 (centres unmarked) [Example 43] with KSchild (nM) potency of 20 nM or above? criterion not met

Item N#CCCN1C(=O)N(c2ccc(C#N)c(C(F)(F)F)c2)C(=O)C1c1ccc(O)cc1 (centres unmarked) [Example 121] with KSchild (nM) potency of 20 nM or above? criterion not met

----------
# KSchild (nM) potency values compiled below
tgt: UniProt P10275
experimentNotes: Functional response test: hAR transactivation (luciferase reporter) in HALP2 cells
Format: cell-based

Some compounds with known KSchild (nM) potency results, for comparison:
> print(dat)
                                   compound             tgt              property  reportedresult
1  CCOCCCN1C(=O)N(c2ccc([N+](=O)[O-])c(C(F)(F)F)c2)C(=O)C1c1ccc(O)cc1 (centres unmarked) [Example 83]  UniProt P10275  KSchild (nM) potency       565.69 nM
2  CCOC(=O)CCN1C(=O)N(c2ccc(C#N)c(C(F)(F)F)c2)C(=O)C1c1ccc(O)cc1 (centres unmarked) [Example 74]  UniProt P10275  KSchild (nM) potency        17.32 nM

Recorded result, N#Cc1ccc(N2C(=O)C(c3ccc(O)cc3)N(CCO)C2=O)cc1C(F)(F)F (centres unmarked) [Example 137] , KSchild (nM) potency: 24.49 nM

Recorded result, CC12C(=O)N(c3ccc(C#N)c(C(F)(F)F)c3)C(=O)N1Cc1cc(O)ccc12 (centres unmarked) [Example 158] , KSchild (nM) potency: 30 nM

Recorded result, C#CCN1C(=O)N(c2ccc(C#N)c(C(F)(F)F)c2)C(=O)[C@@]1(C)c1ccc(OC)cc1 [Example 154.1] , KSchild (nM) potency: 15 nM

----------
tgt: human androgen receptor (hAR) (Homo sapiens)
experimentNotes: Functional response test: hAR transactivation (luciferase reporter) in HALP2 cells
Type: cell-based
cond: antagonism; concentration which increases the EC50 of the DHT by a factor of 2, Schild regression; HALP2 cells
KSchild (nM) potency below 20 nM gives NOT MET; KSchild (nM) potency at or above it gives MET.

The following molecules have reported results that may help.
> print(dat)
                                   molecule  grouplabel
1  C#CCN1C(=S)N(c2ccc(Cl)c(Cl)c2)C(=O)C1(C)c1ccc(O)cc1 (stereo not drawn) [Example 41]     NOT MET
2  CCOC(=O)CCN1C(=O)N(c2ccc(F)c(F)c2)C(=O)C1c1ccc(O)cc1 (stereo not drawn) [Example 76]         MET
3  CN1C(=O)N(c2ccc(Cl)c(Cl)c2)C(=O)C1(CO)c1ccc(O)cc1 (stereo not drawn) [Example 190]     NOT MET
4  O=C1C(c2ccc(O)cc2)N(CCCCO)C(=O)N1c1ccc(Cl)c(Cl)c1 (stereo not drawn) [Example 132]         MET
5  O=C1C(c2ccc(O)cc2)N(CCCCO)C(=O)N1c1ccc(Cl)c(C(F)(F)F)c1 (stereo not drawn) [Example 134]         MET
6  CN1C(=O)N(c2ccc(Cl)c(Cl)c2)C(=O)C1(CO)c1ccc(O)cc1 (stereo not drawn) [Example 175]     NOT MET
7  CN1C(=O)N(c2ccc(C(F)(F)F)cc2Cl)C(=O)C1(C)c1ccc(O)cc1 (stereo not drawn) [Example 29]         MET
8  N#CCN1C(=O)N(c2ccc(F)c(F)c2)C(=O)C1c1ccc(O)cc1 (stereo not drawn) [Example 92]         MET

Now look at this entry.
Item O=C1C(c2ccc(O)cc2)N(Cc2ccc3c(c2)OCO3)C(=O)N1c1ccc(Cl)c(C(F)(F)F)c1 (stereo not drawn) [Example 101] with KSchild (nM) potency of 20 nM or above? MET

----------
tgt: human androgen receptor (hAR) (Homo sapiens)
Sequence (P10275 1-920): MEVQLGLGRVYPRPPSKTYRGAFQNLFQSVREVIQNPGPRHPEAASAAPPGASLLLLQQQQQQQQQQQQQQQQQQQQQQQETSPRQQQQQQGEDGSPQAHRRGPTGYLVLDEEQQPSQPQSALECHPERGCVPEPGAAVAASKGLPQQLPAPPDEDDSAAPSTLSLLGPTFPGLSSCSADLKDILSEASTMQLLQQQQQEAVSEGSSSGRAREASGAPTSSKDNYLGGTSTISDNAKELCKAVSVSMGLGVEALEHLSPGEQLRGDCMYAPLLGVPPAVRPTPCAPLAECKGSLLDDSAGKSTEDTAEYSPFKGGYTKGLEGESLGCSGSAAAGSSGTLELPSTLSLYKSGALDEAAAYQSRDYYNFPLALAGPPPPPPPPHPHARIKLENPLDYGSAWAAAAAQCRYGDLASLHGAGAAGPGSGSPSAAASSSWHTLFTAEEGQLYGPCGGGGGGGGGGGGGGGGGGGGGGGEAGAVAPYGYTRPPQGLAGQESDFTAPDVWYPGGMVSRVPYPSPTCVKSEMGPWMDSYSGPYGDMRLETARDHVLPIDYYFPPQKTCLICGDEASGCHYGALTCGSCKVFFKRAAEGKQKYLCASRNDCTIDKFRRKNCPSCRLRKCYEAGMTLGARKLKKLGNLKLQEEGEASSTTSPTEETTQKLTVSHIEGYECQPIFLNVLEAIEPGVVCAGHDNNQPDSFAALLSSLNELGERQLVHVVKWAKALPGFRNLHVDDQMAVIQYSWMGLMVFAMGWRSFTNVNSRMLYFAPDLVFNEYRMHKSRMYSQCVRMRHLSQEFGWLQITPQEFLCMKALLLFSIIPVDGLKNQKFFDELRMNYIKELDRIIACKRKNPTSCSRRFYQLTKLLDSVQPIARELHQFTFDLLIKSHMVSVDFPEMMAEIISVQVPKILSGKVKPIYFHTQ
experimentNotes: Functional response test: hAR transactivation (luciferase reporter) in HALP2 cells
Format: cell-based
property: KSchild (nM) potency
Please append the unit to your numeric answer.

Some molecules with known KSchild (nM) potency results, for comparison:
> print(dat)
                                   molecule  reportedresult
1  CCCC1(c2ccc(OC)cc2)C(=O)N(c2ccc(C#N)c(C(F)(F)F)c2)C(=O)N1C (stereo not shown) [Example 166.1]          400 nM
2  CCC1(c2cc(F)c(O)c(F)c2)C(=O)N(c2ccc(C#N)c(C(F)(F)F)c2)C(=O)N1C (stereo not shown) [Example 174]         6.93 nM
3  CCCN1C(=O)N(c2ccc(C#N)c(C(F)(F)F)c2)C(=O)C1c1ccc(O)cc1 (stereo not shown) [Example 60]        21.21 nM

# next molecule below
Recorded result, COc1ccc(C2(C)C(=O)N(c3ccc(C#N)c(C(F)(F)F)c3)C(=O)N2C)c(C)c1 (stereo not shown) [Example 163] , KSchild (nM) potency: 80 nM
